- measurementNotes: E. coli acrAB mutant growth effects, primary screen, E. coli filamentation inducers, strain DRC39, OD650, 48 h (AID 1179);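 also: screen aims at cell division blockers that make cells filament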
- reportedConditions: E. coli DRC39 delta-acrAB growth, higher = more signal, called active from +8 up or from −8 down
Classification by z-score follows these ranges: category 1 = under -0.6, category 2 = from -0.6 up to 0.2, category 3 = 0.2 and over

compound	assignedClass
CCOC(=O)NN=C1C[C@@H](O)[C@@H](O)[C@@H]2[C@@H]3C(=O)N(C4CCCCC4)C(=O)[C@@H]3CC[C@H]12	category 2
O=C1[C@H]2[C@H]3[C@H](O)[C@H](O)CC(=NOCc4ccccc4)[C@H]3CC[C@H]2C(=O)N1C[C@@H]1CCCO1	category 2

## Task Please indicate the class for `CCOC(=O)CCN1C(=O)[C@H]2[C@H]3[C@H](O)[C@H](O)CC(=NNC(=O)OCc4ccc(OC)cc4)[C@@H]3CC[C@H]2C1=O` based on its z-score.
## Result category 3

## Task Please indicate the class for `CC(C)C[C@@H]1NC(=O)[C@H]2C[C@@H](C(=O)O)[C@@H](c3ccc(O)cc3)N2C1=O` based on its z-score.
## Result category 2
